Taken from patent US9448170B2.

test system: Spirulina platensis; format: cell-based
Measure: variation of the VCP2 value with respect to concentration

[Hg+2] ... decreases
CN(C)C(=O)Nc1ccc(Cl)c(Cl)c1 ... decreases
CCNc1nc(Cl)nc(NC(C)C)n1 ... decreases
